Test: Approximate solubilities of solid forms in solvents
Format: physicochemical
Conditions: methanol, 25 °C, organic solvent or mixture, thermodynamic from solid, column 1; solvent Methanol; about 25° C., at least 24 hours; read-out: Approximate Solubility (mg/mL) of Form A of the Free Base of Compound I
Recorded Endpoint: solubility

Compound	Experimental Value
O[C@H]1CC[C@H](Nc2ncc3nc(Nc4c(F)cc(F)cc4F)n([C@H]4CCOC4)c3n2)CC1 (stereo in doubt) [Form A of the Free Base of Compound I]	> 50 mg/mL

---

Test: Approximate solubilities of solid forms in solvents
Format: physicochemical
Details: absolute ethanol, 25 °C, organic solvent or mixture, thermodynamic from solid, column 1; solvent Absolute ethanol; about 25° C., at least 24 hours; read-out: Approximate Solubility (mg/mL) of Form A of the Free Base of Compound I
Recorded Endpoint: solubility

Molecule	Experimental Value
O[C@H]1CC[C@H](Nc2ncc3nc(Nc4c(F)cc(F)cc4F)n([C@H]4CCOC4)c3n2)CC1 (stereo in doubt) [Form A of the Free Base of Compound I]	47.1 mg/mL
